I'd be grateful if you could share measured melting point for these entries.

The cases that follow already have their melting point on record.
COc1nc(CO)nc(N2[C@H](C)CN(c3ccnc([C@@H](C)O)n3)C[C@@H]2C)n1 [Example 236] = 170 to 171 °C
O=S(=O)(N1CCCCC1)N1CCN(c2ccnc(CO)n2)CC1 [Example 123] = 141 to 142 °C
C[C@@H]1CN(c2ncnc(-c3ccccc3)n2)C[C@H](C)N1c1ccnc([C@@H](C)O)n1 [Example 215] = 133 to 134 °C

For each listed entry, give its melting point.
1. CC(=O)c1nccc(N2C[C@@H](C)N(c3ccnc([C@@H](C)O)n3)[C@@H](C)C2)n1 [Example 46]
2. COc1nc(C)nc(N2[C@H](C)CN(c3ccnc([C@@H](C)O)n3)C[C@@H]2C)n1 [Example 213]

## Result
1: 150 to 164 °C; 2: 161 to 162 °C

## Task Give the value of melting point reported for the following: C[C@@H]1CN(c2nccc(-n3cncn3)n2)C[C@H](C)N1c1ccnc([C@@H](C)O)n1 [Example 196]
## Result 181 to 182 °C
